Hey, just so you know, these numbers are from BindingDB's records for patent US8604046.

Molecular target: Histamine H3 receptor (Macaca mulatta)
Sequence (G7N499 whole entry): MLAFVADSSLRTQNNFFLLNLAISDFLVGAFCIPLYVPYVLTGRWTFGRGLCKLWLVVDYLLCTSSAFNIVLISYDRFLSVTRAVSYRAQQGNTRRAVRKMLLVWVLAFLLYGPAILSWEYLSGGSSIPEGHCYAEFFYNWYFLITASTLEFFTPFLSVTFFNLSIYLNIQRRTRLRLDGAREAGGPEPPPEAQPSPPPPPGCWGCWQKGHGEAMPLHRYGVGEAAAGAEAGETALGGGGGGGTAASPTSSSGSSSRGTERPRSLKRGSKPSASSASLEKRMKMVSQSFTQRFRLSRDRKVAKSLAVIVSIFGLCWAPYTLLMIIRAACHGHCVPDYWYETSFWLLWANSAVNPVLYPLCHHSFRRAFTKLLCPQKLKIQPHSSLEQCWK
Assay Endpoint: Ki

mol_smiles=C[C@H]1CCCN1C1CCN(c2ccc(N3CCC4(CCN(C(=O)OC(C)(C)C)CC4)C3=O)c(F)c2)CC1 result="0.3 nM"
